assay: Cytotoxicity against human BGC823 cells after 96 hrs by MTT assay; format: functional, cell-based; details: BGC-823, 96 h
READOUT KIND: IC50

>>> observed_result("CC(=O)[C@@H]1CC[C@]2(C)CC[C@]3(C)[C@H](CC[C@@H]4[C@@]5(C)CC[C@@H](O)C(C)(C)[C@@H]5CC[C@]43C)[C@@H]12")
"> 10 µM"
>>> observed_result("CC(=O)O[C@@H]1CC[C@]2(C)[C@H]3CC[C@@H]4[C@H]5[C@H]([C@H](C)C(=O)O)CC[C@]5(C)CC[C@@]4(C)[C@]3(C)CC[C@H]2C1(C)C")
"> 10 µM"
>>> observed_result("C[C@H](C(=O)O)[C@@H]1CC[C@]2(C)CC[C@]3(C)[C@H](CC[C@@H]4[C@@]5(C)CC[C@@H](O)C(C)(C)[C@@H]5CC[C@]43C)[C@@H]12")
"> 10 µM"
>>> observed_result("CC(=O)C1=C2[C@H]3CC[C@@H]4[C@@]5(C)CC[C@@H](O)C(C)(C)[C@@H]5CC[C@@]4(C)[C@]3(C)CC[C@@]2(C)CC1=O")
"> 10 µM"
>>> observed_result("C=C(C)[C@@H]1CC[C@]2(CO)CC[C@]3(C)[C@H](CC[C@@H]4[C@@]5(C)CC[C@@H](O)C(C)(C)[C@@H]5CC[C@]43C)[C@@H]12 [3-EPI-BETULIN]")
"> 10 µM"
>>> observed_result("C=C(CO)[C@@H]1CC[C@]2(C)CC[C@]3(C)[C@H](CC[C@@H]4[C@@]5(C)CCC(=O)C(C)(C)[C@@H]5CC[C@]43C)[C@@H]12")
"> 10 µM"

----------
assay: Cytotoxicity against mouse BV2 cells assessed as cell viability by MTT assay relative to LPS-treated control; format: cell-based, BV-2; set-up: concentration or dose not given beside the values; details: read-out: Activity
READOUT KIND: viability (%)

>>> observed_result("CC(=O)[C@@H]1CC[C@]2(C)CC[C@]3(C)[C@H](CC[C@@H]4[C@@]5(C)CC[C@H](O)C(C)(C)[C@@H]5CC[C@]43C)[C@@H]12")
93.5
>>> observed_result("C[C@@H](O)[C@@H]1CC[C@]2(C)CC[C@]3(C)[C@H](CC[C@@H]4[C@@]5(C)CC[C@@H](O)C(C)(C)[C@@H]5CC[C@]43C)[C@@H]12")
94.2
>>> observed_result("COc1cc(/C=C/C(=O)CC(=O)/C=C/c2ccc(O)c(OC)c2)ccc1O [CURCUMIN]")
93.3
>>> observed_result("C[C@H](C(=O)O)[C@@H]1CC[C@]2(C)CC[C@]3(C)[C@H](CC[C@@H]4[C@@]5(C)CC[C@@H](O)C(C)(C)[C@@H]5CC[C@]43C)[C@@H]12")
87.3
>>> observed_result("C[C@@H](C(=O)O)[C@@H]1CC[C@]2(C)CC[C@]3(C)[C@H](CC[C@@H]4[C@@]5(C)CC[C@@H](O)C(C)(C)[C@@H]5CC[C@]43C)[C@@H]12")
96.8
>>> observed_result("CC(=O)O[C@@H]1CC[C@]2(C)[C@H]3CC[C@@H]4[C@H]5[C@H]([C@H](C)C(=O)O)CC[C@]5(C)CC[C@@]4(C)[C@]3(C)CC[C@H]2C1(C)C")
98.5
>>> observed_result("C=C(C)[C@@H]1CC[C@]2(CO)CC[C@]3(C)[C@H](CC[C@@H]4[C@@]5(C)CC[C@@H](O)C(C)(C)[C@@H]5CC[C@]43C)[C@@H]12 [3-EPI-BETULIN]")
89.3
